Below: compounds with IC50 recorded for Cytochrome P450 3A4 (Homo sapiens) in separate published works.
API: value field is a number in µM; no unit string.

Take a look at these entries with their results.
COc1ccc([C@H](Cc2nnn[nH]2)NC(=O)c2ncnc3[nH]ccc23)cc1 :: 25.4
[2H]C([2H])([2H])N(C(=O)[C@@H]1[C@H](CO)CN1c1nc(C)cc(C(F)(F)F)c1C#N)c1ccc(F)c(Cl)c1 :: 14.6
COc1ccc(COc2ccc(Cn3cnc4cc(C#CC5CCNC5)cnc43)cc2OC)cn1 (stereo unspecified) :: 6.6
CNC(=O)c1ncn2cc(-c3c(F)ccc(NS(=O)(=O)c4cc(Cl)cnc4OC)c3F)ncc12 :: 33
CNC(=O)c1ncn2c1CC[C@H](c1c(F)ccc(NS(=O)(=O)c3cc(Cl)cnc3OC)c1F)C2 :: 33

As a next step, examine the compound that follows.
Tested on Cytochrome P450 3A4 (Homo sapiens), the item CCCCNc1nc(N)nc2cnn(Cc3ccc(CNC4CCC4)cc3OC)c12 showed IC50 equal to 6.65
